conditions: in tributyl phosphate, 283.15 K
Test readout: solubility (mole fraction)

Problem: // lookup solubility (mole fraction) for O=C(O)c1ccccc1
Solution: 0.492

----------
conditions: in tributyl phosphate, 293.15 K
Test readout: solubility (mole fraction)
Keep it simple and answer with nothing but the number.

Problem: Give the measured solubility (mole fraction) of O=C(O)c1ccccc1 .
Solution: 0.522

----------
settings: in n-pentyl acetate, 308.15 K
Test readout: solubility (mole fraction)

Problem: Endpoint output: solubility (mole fraction) of O=C(O)c1ccccc1 . Value?
Solution: 0.198

----------
settings: in diacetone alcohol, 283.15 K
Test readout: solubility (mole fraction)
I'd appreciate a reply containing only the number, no unit.

Problem: If you can, please state the reported solubility (mole fraction) value of O=C(O)c1ccccc1 .
Solution: 0.234

----------
conditions: in methyl acetate, 293.15 K
Test readout: solubility (mole fraction)
Provide a numeric answer; units are not to be included.

Problem: Param item = O=C(O)c1ccccc1 ; retrieve measured solubility (mole fraction).
Solution: 0.175

----------
conditions: in 2-pentanone, 328.15 K
Test readout: solubility (mole fraction)
Field format: numeric only.

Problem: # lookup: solubility (mole fraction) of O=C(O)c1ccccc1
Solution: 0.388

----------
settings: in 2-pentanone, 283.15 K
Test readout: solubility (mole fraction)
Give your answer as a number; write no unit.

Problem: Request the reported solubility (mole fraction) associated with O=C(O)c1ccccc1
Solution: 0.163

----------
settings: in 2-pentanone, 313.15 K
Test readout: solubility (mole fraction)
Output spec: single numeric token, no unit.

Problem: solubility (mole fraction) for O=C(O)c1ccccc1 ?
Solution: 0.279

----------
conditions: in methyl acetate, 303.15 K
Test readout: solubility (mole fraction)
Note: the reply should be a number with no unit written.

Problem: Looking for the measured solubility (mole fraction) of O=C(O)c1ccccc1 , can you help?
Solution: 0.213

----------
conditions: in 2-pentanone, 323.15 K
Test readout: solubility (mole fraction)
Respond numerically, and do not add a unit to the figure.

Problem: Looking for the measured solubility (mole fraction) of O=C(O)c1ccccc1 , can you help?
Solution: 0.349

----------
conditions: in isooctane, 283.15 K
Test readout: solubility (mole fraction)
# respond with the number and nothing more

Problem: Dear colleague, I am looking for the recorded solubility (mole fraction) of the following compound: O=C(O)c1ccccc1
Solution: 0.002

----------
details: in methyl acetate, 298.15 K
Test readout: solubility (mole fraction)
Please give the numeric answer without any surrounding text.

Problem: Data request, read-out solubility (mole fraction), for O=C(O)c1ccccc1
Solution: 0.198

----------
conditions: in tributyl phosphate, 288.15 K
Test readout: solubility (mole fraction)
Could you keep your reply to the number by itself?

Problem: Recorded solubility (mole fraction) of O=C(O)c1ccccc1 , please.
Solution: 0.507

----------
conditions: in 2-pentanone, 318.15 K
Test readout: solubility (mole fraction)
// keep it numeric: no unit symbol after the value

Problem: Data request, read-out solubility (mole fraction), for O=C(O)c1ccccc1
Solution: 0.315

----------
settings: in 2-pentanone, 293.15 K
Test readout: solubility (mole fraction)
// return just the number, without any unit appended

Problem: Entry O=C(O)c1ccccc1 has what solubility (mole fraction)?
Solution: 0.196

----------
conditions: in 2-pentanone, 298.15 K
Test readout: solubility (mole fraction)
Enter the number alone.

Problem: Reported solubility (mole fraction), compound O=C(O)c1ccccc1 : ____
Solution: 0.215

----------
settings: in isooctane, 303.15 K
Test readout: solubility (mole fraction)
Lab note: jot down the number only; don't add units.

Problem: Requested read-out: solubility (mole fraction). Entry: O=C(O)c1ccccc1
Solution: 0.01

FYI, the data here is from BigSolDB 2.1.
